- study target: L-glutaminase present in mice brain homogenate (Glutaminase(Brain)) (Mus musculus, UniProt D3Z7P3)
- Sequence (D3Z7P3 55-674): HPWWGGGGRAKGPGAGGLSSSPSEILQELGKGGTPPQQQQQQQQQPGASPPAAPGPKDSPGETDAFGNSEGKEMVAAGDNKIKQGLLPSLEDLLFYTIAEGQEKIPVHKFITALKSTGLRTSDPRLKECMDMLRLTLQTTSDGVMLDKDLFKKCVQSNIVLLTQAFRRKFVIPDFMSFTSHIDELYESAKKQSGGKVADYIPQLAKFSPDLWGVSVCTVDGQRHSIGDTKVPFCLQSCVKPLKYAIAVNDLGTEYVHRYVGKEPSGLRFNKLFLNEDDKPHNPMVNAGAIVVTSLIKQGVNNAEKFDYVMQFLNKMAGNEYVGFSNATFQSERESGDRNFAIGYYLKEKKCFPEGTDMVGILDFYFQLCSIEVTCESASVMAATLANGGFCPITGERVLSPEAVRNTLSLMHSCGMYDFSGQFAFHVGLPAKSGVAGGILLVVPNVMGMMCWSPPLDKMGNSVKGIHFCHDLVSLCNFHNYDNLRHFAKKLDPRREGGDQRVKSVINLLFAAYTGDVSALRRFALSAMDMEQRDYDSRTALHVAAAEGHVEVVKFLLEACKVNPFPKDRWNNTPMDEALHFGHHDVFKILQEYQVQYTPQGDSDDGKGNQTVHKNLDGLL
- protocol text: Glutaminase enzyme activity using glutaminase enzyme from mice brain/kidney homogenate (Nessler's reagent, ammonia)
- Format: biochemical
- condition: 0.1 μM; mice brain homogenate; read-out: Glutaminase(Brain) activity % inhibition 0.1 μM
assay metric: inhibition at 0.1 µM

// worked examples, inhibition at 0.1 µM included
Notebook: O=C(Cc1ccccn1)Nc1ccc(CCCCc2nnc(NC(=O)Cc3cccnc3)s2)c(F)n1 , inhibition at 0.1 µM read as 25 to 50%

Notebook: O=C(Cc1cccnc1)Nc1nnc(CCCCc2ccc(NC(=O)Cc3cccc(OC(F)(F)F)c3)c(F)c2)s1 , inhibition at 0.1 µM read as < 25%

Notebook: O=C(Cc1ccccn1)Nc1ccc(CCCCc2nnc(NC(=O)Cc3cccc(OC(F)(F)F)c3)s2)c(F)n1 , inhibition at 0.1 µM read as < 25%

Continuing:
Notebook: O=C(Cc1cccc(OC(F)(F)F)c1)Nc1ccc(CCCCc2nnc(NC(=O)Cc3ccccn3)s2)nc1 , inhibition at 0.1 µM read as < 25%

Notebook: N#Cc1cccc(CC(=O)Nc2nnc(CCCCc3ccc(NC(=O)Cc4cccc(OC(F)(F)F)c4)nc3)s2)c1 , inhibition at 0.1 µM read as 25 to 50%

Notebook: O=C(Cc1cccc(OC(F)(F)F)c1)Nc1ccc(CCCCc2ccc(NC(=O)Cc3cccc(OC(F)(F)F)c3)nc2)cn1 , inhibition at 0.1 µM read as < 25%

Notebook: COc1ccccc1CC(=O)Nc1nnc(CCCCc2ccc(NC(=O)Cc3ccccc3Cl)nc2)s1 , inhibition at 0.1 µM read as 50 to 75%

Notebook: O=C(Cc1cccnc1)Nc1ccc(CCCCc2nnc(NC(=O)Cc3cccc(OC(F)(F)F)c3)s2)cn1 , inhibition at 0.1 µM read as 75 to 100%

Notebook: O=C(Cc1cccnc1)Nc1ccc(CC2CC(c3nnc(NC(=O)Cc4cccc(OC(F)(F)F)c4)s3)C2)cn1 (stereo not drawn) , inhibition at 0.1 µM read as 50 to 75%
